Please respond with reported pest or weed control at 121.5 g/ha for every item in the list.
# System: Zymoseptoria tritici
# procedure.details: Leaf blotch of wheat (SEPTTR), disease control on wheat seedlings
# Format: in vivo
# condition.notes: 24 h, low volume application at 121.5 g/H, 1 Day Protectant, wheat leaf blotch, read-out: SEPTTR 1DP disease control, LV activity

INSERT INTO measurements (structure_notation, tgt, measure_name, result) VALUES
  ('COc1ccnc(C(=O)N[C@@H](C)C(=O)O[C@@H](C)[C@H](c2ccccc2C)C(C)C)c1OC(=O)C(C)C', 'Zymoseptoria tritici', 'pest or weed control at 121.5 g/ha', '< 80%'),
  ('COc1ccnc(C(=O)N[C@@H](C)C(=O)O[C@@H](C)[C@H](c2ccc(F)cc2C)C(C)C)c1OC(=O)OC(C)C', 'Zymoseptoria tritici', 'pest or weed control at 121.5 g/ha', '> 80%');

For every record below, what is its pest or weed control at 121.5 g/ha?
1. COc1ccc([C@H](C(C)C)[C@H](C)OC(=O)[C@H](C)NC(=O)c2nccc(OC)c2OCOC(C)=O)cc1
2. COc1ccnc(C(=O)N[C@@H](C)C(=O)O[C@@H](C)[C@H](c2ccc(OC(C)C)cc2)C(C)C)c1OC(C)=O
3. COc1ccnc(C(=O)N[C@@H](C)C(=O)O[C@@H](C)[C@H](c2ccc(OC(F)(F)F)cc2)C(C)C)c1OCOC(C)=O
4. COc1ccnc(C(=O)N[C@@H](C)C(=O)O[C@@H](C)[C@H](c2ccc(Cl)cc2Cl)C(C)C)c1OC(C)=O
5. COc1ccnc(C(=O)N[C@@H](C)C(=O)O[C@@H](C)[C@H](c2c(F)cc(F)cc2F)C(C)C)c1OC(C)=O
6. CCC(CC)[C@@H](c1ccccc1C)[C@H](C)OC(=O)[C@H](C)NC(=O)c1nccc(OC)c1OC(=O)C(C)C

result:
1: < 80%; 2: < 80%; 3: > 80%; 4: > 80%; 5: > 80%; 6: < 80%

Taken from patent US20180186742A1.
